Tgt: the molecule itself
Assay Summary: cross-linking; Mg2+-loaded proteins: 0.02% glutaric aldehyde, 16 h, 20 °C, protein 1 mg/mL, 20 mM Tricine-KOH pH 7.4, 50 mM KCl, 1 mM DTT, 1 mM MgCl2, 1 mM EGTA; SDS-PAGE, Coomassie, densitometry; self-association
# Monomer 20 kDa, % annotations
Quantity Kind: Monomer 20 kDa, % (%)

protein="recombinant wild type human recoverin (natural protein, UniProt P35243 1-200, looked up, myristoyl group at the N terminus (degree of myristoylation exceeded 89%), recoverin, human, UniProt P35243; cDNA from Y79 retinoblastoma cells, amplified with primers from the start codon to the stop codon, subcloned into pET-15b(+) by NcoI and XhoI; also called rWT; rWT recoverin; source: E. coli pET15b rec/pBB131/BL21(DE3)RILLC+, purified (phenyl-Sepharose, Toyopearl SuperQ-650M)) MGNSKSGALSKEILEELQLNTKFSEEELCSWYQSFLKDCPTGRITQQQFQSIYAKFFPDTDPKAYAQHVFRSFDSNLDGTLDFKEYVIALHMTTAGKTNQKLEWAFSLYDVDGNGTISKNEVLEIVMAIFKMITPEDVKLLPDDENTPEKRAEKIWKYFGKNDDDKLTEKEFIEGTLANKEILRLIQFEPQKVKEKMKNA" unit_of_measurement=% value=68.5
protein="human recoverin mutant F83A (natural protein, UniProt P35243 1-200, looked up, myristoylated (fraction of non-myristoylated forms did not exceed 16%), recoverin, human, UniProt P35243, N-terminal 'black' cluster mutant; Parent construct as m1; source: E. coli, expressed and purified similarly to the rWT protein (phenyl-Sepharose, Toyopearl SuperQ-650M)) MGNSKSGALSKEILEELQLNTKFSEEELCSWYQSFLKDCPTGRITQQQFQSIYAKFFPDTDPKAYAQHVFRSFDSNLDGTLDAKEYVIALHMTTAGKTNQKLEWAFSLYDVDGNGTISKNEVLEIVMAIFKMITPEDVKLLPDDENTPEKRAEKIWKYFGKNDDDKLTEKEFIEGTLANKEILRLIQFEPQKVKEKMKNA" unit_of_measurement=% value=66.2
protein="human recoverin mutant F106A (natural protein, UniProt P35243 1-200, looked up, myristoylated (fraction of non-myristoylated forms did not exceed 16%), recoverin, human, UniProt P35243, C-terminal 'black' cluster mutant; Parent construct as m1; source: E. coli, expressed and purified similarly to the rWT protein (phenyl-Sepharose, Toyopearl SuperQ-650M)) MGNSKSGALSKEILEELQLNTKFSEEELCSWYQSFLKDCPTGRITQQQFQSIYAKFFPDTDPKAYAQHVFRSFDSNLDGTLDFKEYVIALHMTTAGKTNQKLEWAASLYDVDGNGTISKNEVLEIVMAIFKMITPEDVKLLPDDENTPEKRAEKIWKYFGKNDDDKLTEKEFIEGTLANKEILRLIQFEPQKVKEKMKNA" unit_of_measurement=% value=64.6
protein="human recoverin mutant K119A (natural protein, UniProt P35243 1-200, looked up, myristoylated (fraction of non-myristoylated forms did not exceed 16%), recoverin, human, UniProt P35243, C-terminal 'gray' cluster mutant; Parent construct as m1; source: E. coli, expressed and purified similarly to the rWT protein (phenyl-Sepharose, Toyopearl SuperQ-650M)) MGNSKSGALSKEILEELQLNTKFSEEELCSWYQSFLKDCPTGRITQQQFQSIYAKFFPDTDPKAYAQHVFRSFDSNLDGTLDFKEYVIALHMTTAGKTNQKLEWAFSLYDVDGNGTISANEVLEIVMAIFKMITPEDVKLLPDDENTPEKRAEKIWKYFGKNDDDKLTEKEFIEGTLANKEILRLIQFEPQKVKEKMKNA" unit_of_measurement=% value=53.6
protein="human recoverin mutant Q46A (natural protein, UniProt P35243 1-200, looked up, myristoylated (fraction of non-myristoylated forms did not exceed 16%), recoverin, human, UniProt P35243, N-terminal 'gray' cluster mutant; Parent construct as m1; source: E. coli, expressed and purified similarly to the rWT protein (phenyl-Sepharose, Toyopearl SuperQ-650M)) MGNSKSGALSKEILEELQLNTKFSEEELCSWYQSFLKDCPTGRITAQQFQSIYAKFFPDTDPKAYAQHVFRSFDSNLDGTLDFKEYVIALHMTTAGKTNQKLEWAFSLYDVDGNGTISKNEVLEIVMAIFKMITPEDVKLLPDDENTPEKRAEKIWKYFGKNDDDKLTEKEFIEGTLANKEILRLIQFEPQKVKEKMKNA" unit_of_measurement=% value=69.8
protein="human recoverin mutant E169A (natural protein, UniProt P35243 1-200, looked up, myristoylated (fraction of non-myristoylated forms did not exceed 16%), recoverin, human, UniProt P35243, C-terminal 'black' cluster mutant; Parent construct as m1; source: E. coli, expressed and purified similarly to the rWT protein (phenyl-Sepharose, Toyopearl SuperQ-650M)) MGNSKSGALSKEILEELQLNTKFSEEELCSWYQSFLKDCPTGRITQQQFQSIYAKFFPDTDPKAYAQHVFRSFDSNLDGTLDFKEYVIALHMTTAGKTNQKLEWAFSLYDVDGNGTISKNEVLEIVMAIFKMITPEDVKLLPDDENTPEKRAEKIWKYFGKNDDDKLTAKEFIEGTLANKEILRLIQFEPQKVKEKMKNA" unit_of_measurement=% value=66.3
